Tested on: HCI-015 (organoid from a triple-negative breast cancer xenograft)
Experiment: CTG-3D luminescence at 96 h relative to day-0 seeding control (ratio to day 0); higher = more growth / less cytotoxicity; PDxO 3D drug screen (set 2), 96 h, CTG-3D normalised to day-0 seeding control.
Details: 100 µM; days in culture: 355
Assay metric: CTG-3D luminescence at 96 h

{"Molecule": "CO[C@H]1C[C@@H]2CC[C@@H](C)[C@@](O)(O2)C(=O)C(=O)N2CCCC[C@H]2C(=O)O[C@H]([C@H](C)C[C@@H]2CC[C@@H](O)[C@H](OC)C2)CC(=O)[C@H](C)/C=C(\\C)[C@@H](O)[C@@H](OC)C(=O)[C@H](C)C[C@H](C)/C=C/C=C/C=C/1C", "CTG-3D luminescence at 96 h": 0.0149}

Recorded result, Cc1c(CN2CCN(C(=O)[C@H](C)O)CC2)sc2c(N3CCOCC3)nc(-c3cnc(N)nc3)nc12 , CTG-3D luminescence at 96 h: 0.182

Recorded result, COc1cccc2c1C(=O)c1c(O)c3c(c(O)c1C2=O)C[C@@](O)(C(=O)CO)C[C@@H]3O[C@H]1C[C@H](N)[C@@H](O)[C@H](C)O1 [epirubicin] , CTG-3D luminescence at 96 h: 0.00144

Recorded result, O=C(c1cc(Cc2n[nH]c(=O)c3ccccc23)ccc1F)N1CCN(C(=O)C2CC2)CC1 , CTG-3D luminescence at 96 h: 0.951
